System: Vero cells
CONDITION_DETAILS: African green monkey
For each of the molecules below, state its CC50.
Give bare numbers, in µM.

Some entries whose results are on file:
- MOLECULE: "CCC12CC3CC(C(=O)NC4CCNCC4(C)C)(C1)CC(c1ccccc1)(C3)C2 (racemic) [Example A52]"
  MEASURED_ON: "Vero cells"
  UNITS_TEXT: "µM"
  EXPERIMENTAL_RESULT: 5.7
- MOLECULE: "CCC12CC3CC(C(=O)N[C@@H]4CCNC[C@H]4F)(C1)CC(c1ccccc1)(C3)C2 (mixture of isomers) [Example A18]"
  MEASURED_ON: "Vero cells"
  UNITS_TEXT: "µM"
  EXPERIMENTAL_RESULT: 9.8

# input for lookup
The molecule identified as C[C@H]1C[C@@H](NC(=O)C23CC4C[C@@](C)(C2)C[C@](c2ccccc2)(C4)C3)CCN1 [Example B15] registered its CC50 at 14.8

----------
ASSAY_PROCEDURE: in vivo
CONDITION_DETAILS: male, CD-1, mouse, po, 10 mg/kg
VALUE_KIND: Tmax (h)
Numbers only, in h.

// recorded Tmax for CC12CC3CC(C(=O)N[C@H]4CC[C@@H](N)CC4)(C1)CC(c1ccccc1)(C3)C2.Cl (mixture of isomers) [Example A2] : 6

----------
ASSAY_PROCEDURE: in vivo
CONDITION_DETAILS: male, CD-1, mouse, iv, 1 mg/kg
VALUE_KIND: clearance
Number plus unit, in that order.

Please fill in: clearance reported for CC12CC3CC(C(=O)N[C@H]4CC[C@@H](N)CC4)(C1)CC(c1ccccc1)(C3)C2.Cl (mixture of isomers) = 29.7 mL/min/kg

----------
What follows is a collection of Sudan Gulu SI (CC50/EC50) values obtained with Sudan Gulu.
Numbers only.

- MOLECULE: "CC12CC3CC(C(=O)N4CCC(N)C(C)(C)C4)(C1)CC(c1ccccc1)(C3)C2 (racemic)"
  Sudan Gulu SI (CC50/EC50): 136
- MOLECULE: "C[C@H]1C[C@@H](NC(=O)C23CC4C[C@@](C)(C2)C[C@](c2ccccc2)(C4)C3)CCN1"
  Sudan Gulu SI (CC50/EC50): 155
- MOLECULE: "C[C@]12CC3CC(C(=O)N[C@H]4CN5CCC4CC5)(C1)C[C@@](c1ccccc1)(C3)C2"
  Sudan Gulu SI (CC50/EC50): 157

For each of the items listed, what is its Sudan Gulu SI (CC50/EC50)?
1. CC12CC3CC(CN4CCC(N)CC4)(C1)CC(c1ccccc1)(C3)C2 (stereo not drawn)
2. C[C@]12CC3CC(C(=O)N[C@H]4CC[C@H](CN)CC4)(C1)C[C@@](c1ccccc1)(C3)C2
3. C[C@@]12CC3CC(C(=O)NC4CCNCC4)(CC(c4ccccc4)(C3)C1)C2

1: 58; 2: 119; 3: 285

----------
Test system: SUDV (glycoprotein, VSV pseudotype)
ASSAY_PROCEDURE: microbe, parasite or virus in culture
Type: cell-based, Sudan ebolavirus
CONDITION_DETAILS: Vesicular stomatitis virus, Vero, 24 h, read-out: EC50 Pseudotype Assays SUDV
I'd appreciate it if you could label each record using EC50 and these ranges: band A: < 200 nM; band B: ≥ 200 nM and < 500 nM; band C: ≥ 500 nM

Some solved cases for reference:
- COMPOUND: "CC1(N)CCN(C(=O)C23CC4CC(C)(C2)CC(c2ccccc2)(C4)C3)CC1 (racemic)"
  MEASURED_ON: "SUDV (glycoprotein, VSV pseudotype)"
  LABEL_CLASS: "band B"
- COMPOUND: "CC12CC3CC(C(=O)NC4CC5CNC4C5)(C1)CC(c1ccccc1)(C3)C2 (racemic)"
  MEASURED_ON: "SUDV (glycoprotein, VSV pseudotype)"
  LABEL_CLASS: "band C"

# bin label for CCC12CC3CC(CN[C@H]4CC[C@H](CN)CC4)(C1)CC(c1ccccc1)(C3)C2 (stereo partly drawn) band C

Please let me know in which category the item CC1(C)CN(CC23CC4C[C@](C)(C2)C[C@@](c2ccccc2)(C4)C3)CC[C@@H]1N belongs. band C
